System: Trypanosoma cruzi
Assay: Concentration required to inhibit proliferation of the epimastigote form of Trypanosoma cruzi
Type: functional, organism-based
Measured IC50 by item

C/C=C/Oc1ccc(Oc2ccccc2)cc1 = > 440 µM
C=CCOc1ccc(Oc2ccc(Cl)cc2)cc1 = > 250 µM

Please give the documented IC50 of "C=CCOc1ccc(Oc2ccc(Br)cc2)cc1"
> 250 µM
